- System: ATS95
- test-details: qHTS profiling for inhibitors of Plasmodium falciparum proliferation (AID 504749); note: nearly all actives have a fitted effect of over 60% in size
- measurement-parameters: P. falciparum in erythrocytes, SYBR Green DNA, 72 h; series mostly up to 28.7 µM
Results filed as inconclusive are left out. Calls of active or inactive are those of the source. Calls come from the whole dose curve; as a rule, active = well fitted inhibition curve with a large enough effect; inconclusive = small, poorly fitted or top-dose-only effect; inactive = flat fitted curve, though single readings scatter.
Select the correct class. Options are yes (1) for active, no (0) for inactive and nothing else.

Reference set, count: 5
COc1ccc(CN2CCNCC2)c(OC)c1OC | no (0)
CCS(=O)(=O)C(C)(C)S(=O)(=O)CC | no (0)
CCNc1nc(Cl)nc(NCC)n1 | no (0)
CN1C[C@@H](NS(=O)(=O)N(C)C)C[C@@H]2c3cccc4c3c(cn4C)C[C@H]21 | no (0)
Cc1c(Cl)c(=O)oc2cc(OP(=O)(OCCCl)OCCCl)ccc12 | yes (1)

**Q:** Outcome logged for CC(C)(O)C(Cl)(Cl)Cl in this assay:
**A:** yes (1)

**Q:** Repeat for the following compound: OC(O)C(Cl)(Cl)Cl
**A:** no (0)

**Q:** Repeat for the following compound: CN(C)C(=S)SSC(=S)N(C)C
**A:** yes (1)
